test system: T. cruzi Tulahuen strain C2C4; test: T. cruzi Tulahuen strain C2C4 β-galactosidase assay; SI versus L6 cells; assay type: cell-based, Trypanosoma cruzi; conditions: relative to L6 cells
Exercise: for every item that follows, state its recorded Selectivity Index T.C.

CCS(=O)(=O)N1CCCc2ccc(NS(=O)(=O)c3ccccc3F)cc21	1.47
O=C(Cn1ccnc1[N+](=O)[O-])NCc1ccccc1 [Benznidazole, benznidazole, reference compound]	>206
CC(C)(C)C(=O)NCCc1csc(-c2cccc(F)c2)n1	26.8

Give Selectivity Index T.C for all compounds that follow.
1. Cc1cc(O)nc(-n2nc(C)cc2NC(=O)C2CCCC2)n1
2. CCOc1ccc(OCc2ccc(C(=O)N3CCCC(C)C3)cc2)cc1 (centres unmarked)
3. CCc1ccccc1N=C(NCCN1CCOCC1)NC(=O)c1ccccc1
4. O=C(NCCc1n[nH]c(-c2ccc(F)cc2)n1)c1cccc(F)c1

Solution:
0.0588
2.56
1.61
6.20

Problem: Kindly state the measured Selectivity Index T.C obtained for CCC(C)NC(=O)c1nc(-c2ccccc2)cnc1N (centres unmarked) with T. cruzi Tulahuen strain C2C4.
Solution: 0.933

====

test system: L. donovani strain MHOM/ET/67/L82 axenic amastigotes; experiment: L. donovani axenic amastigote fluorescence assay; SI versus L6 cells; format: cell-based, Leishmania donovani; settings: Leishmania donovani, L6, 70 h, axenic amastigotes, 70 h; read-out: Compound activity L.D (IC50)
Observable: IC50 (µM)
One number for each entry, in µM.

# count of solved cases: 6
CCOc1ccc(OCc2ccc(C(=O)N3CCCC(C)C3)cc2)cc1 (centres unmarked)	16.1
CCC(C)NC(=O)c1nc(-c2ccccc2)cnc1N (centres unmarked)	34
CC(C)(C)C(=O)NCCc1csc(-c2cccc(F)c2)n1	46.1
Cc1cc(O)nc(-n2nc(C)cc2NC(=O)C2CCCC2)n1	0.488
CCS(=O)(=O)N1CCCc2ccc(NS(=O)(=O)c3ccccc3F)cc21	6.6
O=C(NCCc1n[nH]c(-c2ccc(F)cc2)n1)c1cccc(F)c1	47.3

Problem: Entry under review: `O=C(Nc1ccc(Cl)c(-c2nc3ncccc3o2)c1)c1ccco1` . Reported IC50?
Solution: 1.8

====

tested on: T.b. brucei bloodstream form lister 427; assay: T.b. brucei Alamar Blue viability estimation assay (384-well HTS, retest and rescreen); type: cell-based, Trypanosoma brucei brucei; settings: Trypanosoma brucei, during rescreening of resynthesized compounds; read-out: Reference Compound Activity T.B (IC50)
Observable: IC50 (nM)
One number for each entry, in nM.

N=C(N)c1ccc(/N=N/Nc2ccc(C(=N)N)cc2)cc1 [Diminazene, diminazene aceturate, reference compound]	121

Turning to the following molecule.
Problem: Please state recorded IC50 (tested on T.b. brucei bloodstream form lister 427) of N=C(N)c1ccc(OCCCCCOc2ccc(C(=N)N)cc2)cc1 [Pentamidine, pentamidine, reference compound]
Solution: 3.52

====

System: HEK293 cells
Test: HEK293 Alamar Blue viability estimation assay
Assay type: cell-based, human
Conditions: Homo sapiens, HEK293; reference compound; read-out: IC50 against HEK293, retest screening campaign
Description: T.b. brucei lister 427 cells were maintained in log phase growth in 25 cm^2 tissue culture flasks (Corning, NY, USA) by sub-culturing at either 24 or 48 hour intervals. […] Compound activity in the retest campaign was calculated as percentage inhibition in relation to positive and negative controls, in the same manner as the primary screening campaign. […]
Observable: IC50 (nM)
Answers are plain numbers, in nM.

Problem: Reported IC50 for COc1ccc(C[C@H](N)C(=O)N[C@H]2[C@@H](O)[C@H](n3cnc4c(N(C)C)ncnc43)O[C@@H]2CO)cc1 [Puromycin, puromycin, reference compound] : what is it?
Solution: 1120

====

Tested on: P. falciparum K1 strain
Test: P. falciparum 3H-hypoxanthine incorporation assay; SI versus L6 cells
Assay type: cell-based, Plasmodium falciparum
Conditions: Plasmodium falciparum, K1, L6; read-out: Compound activity P.F (IC50)
Method: L6 rat skeletal myoblasts, [29] were purchased from the American Type Culture Collection (ATCC, Rockville, MD, USA; ATCC number CRL 1458). […] Then the plates were read with a Spectramax Gemini XS microplate fluorometer (Molecular Devices Cooperation, Sunnyvale, CA, USA) using an excitation wavelength of 536 nm and an emission wavelength of 588 nm. Data was analysed using the microplate reader software Softmax Pro (Molecular Devices, USA). […]
Observable: pIC50
Give bare numbers, as −log10 of the molar value.

In the examples that follow, each entry is paired with its recorded pIC50.
CCS(=O)(=O)N1CCCc2ccc(NS(=O)(=O)c3ccccc3F)cc21	4.90
Cc1cc(O)nc(-n2nc(C)cc2NC(=O)C2CCCC2)n1	5.09
CCOc1ccc(OCc2ccc(C(=O)N3CCCC(C)C3)cc2)cc1 (centres unmarked)	4.84
O=C(Nc1ccc(Cl)c(-c2nc3ncccc3o2)c1)c1ccco1	5.11
CCc1ccccc1N=C(NCCN1CCOCC1)NC(=O)c1ccccc1	5.27
CC(C)(C)C(=O)NCCc1csc(-c2cccc(F)c2)n1	4.45

Could you tell me pIC50 for each of these molecules? They are listed below.
1. O=C(NCCc1n[nH]c(-c2ccc(F)cc2)n1)c1cccc(F)c1
2. CCC(C)NC(=O)c1nc(-c2ccccc2)cnc1N (centres unmarked)

Solution:
4.62
4.95
